Experiment: Acute toxicity (LD50), mouse, ip
Condition: in vivo
Consider the following compounds; for each one, report its LD50.

Request: Assign LD50 to the following record: O=C(c1ccc(F)cc1)C(CCN1CCOCC1)Oc1cccc2ccccc12 (stereo not shown)
Result: > 1000 mg/kg

Request: Assign LD50 to the following record: CC(C)(C)NC(=O)OC(CCN1CCN(c2ccccc2)CC1)C(=O)c1ccc(F)cc1 (stereo not shown)
Result: > 1000 mg/kg

Request: Assign LD50 to the following record: O=C(c1ccc(F)cc1)C(CCN1CCN(c2ccccc2)CC1)Oc1ccccc1 (stereo not shown)
Result: > 1000 mg/kg

Request: Assign LD50 to the following record: O=C(c1ccc(F)cc1)C(O)CCN1CCN(c2ccccc2)CC1 (stereo not shown)
Result: > 1000 mg/kg
